# SYSTEM TESTED: 6-phosphogluconate dehydrogenase, decarboxylating (Homo sapiens)
# METHOD: 6PGD enzyme inhibitors, primary screen, biochemical, human, recombinant enzyme, NADPH absorbance (AID 1159550)
# CONDITION LABEL: recombinant 6PGD, NADPH absorbance 341 nm; at 10 µM; stronger effect = higher value
READOUT: inhibition (%)
Output spec: scalar in %, unitless text.

COc1ccc2c(c1OC)C(=O)O[C@@H]2[C@H]1c2cc3c(cc2CCN1C)OCO3	6.9

Consider the compound N[C@@H](Cc1ccc(N(CCCl)CCCl)cc1)C(=O)O and give its recorded inhibition.
-5.9

Consider the compound CC(=O)O[C@H]1CC[C@]2(C)C3CC[C@]4(C)[C@@H](C5=CC(=O)OC5)[C@@H](OC(C)=O)C[C@]4(O)C3CC[C@@H]2C1 (some centres not stated) and give its recorded inhibition.
0.446

Consider the compound c1ccc2nc(N3CCNCC3)ccc2c1 and give its recorded inhibition.
9.28

Consider the compound CC(=O)O[C@@H]1C[C@H]2C(C)(C)C(=O)C=C[C@]2(C)[C@H]2CC[C@]3(C)C(=CC(=O)O[C@H]3c3ccoc3)[C@@]21C and give its recorded inhibition.
4.47

Consider the compound CC(C)N1C(=O)c2ccccc2NS1(=O)=O and give its recorded inhibition.
-1.1

Consider the compound CC(=O)Oc1c2c(c(CC=C(C)C)c3c1C(=O)C1=C[C@@H]4CC5C(C)(C)OC(C/C=C(\C)C(=O)O)(C4=O)[C@@]15O3)OC(C)(CCC=C(C)C)C=C2 (some centres not stated) and give its recorded inhibition.
23.4

Consider the compound COc1cc2c(cc1OC)-c1c(oc3c4c(ccc3c1=O)OC(C(C)C)C4)CO2 (configuration not stated) and give its recorded inhibition.
-6.79

Consider the compound CN1CCCCC1c1ccc(-c2cccnc2)nc1 (configuration not stated) and give its recorded inhibition.
-0.658

Consider the compound O=C(O)COc1ccc(Cl)cc1Cl and give its recorded inhibition.
-20.1

Consider the compound CC(C)=CCCC1(C)C=Cc2c(O)c3c(c(CC=C(C)C)c2O1)OC12C(CC4CC1C(C)(C)OC2(C/C=C(/C)C(=O)O)C4O)C3=O (configuration not stated) and give its recorded inhibition.
-6.13

Consider the compound CCC(C)C(=O)O[C@@H]1C[C@@]2(C)[C@H](c3ccoc3)OC(=O)CC23OC2(C)O[C@]14[C@]1(C)[C@@H](CC(=O)OC)C5(C)CC1(O)[C@](O)(C5OC(=O)C1(C)OC1C)[C@@H](OC(C)=O)[C@]34O2 (some centres not stated) and give its recorded inhibition.
-16.5

Consider the compound c1cc2c(cc1[C@H]1OC[C@@H]3[C@H]1CO[C@H]3c1ccc3c(c1)OCO3)OCO2 and give its recorded inhibition.
-14.7

Consider the compound CC1C[C@H]2CC(=O)[C@H]3CCCN4CCC[C@H]2[C@]34C1 (some centres not stated) and give its recorded inhibition.
-1.6

Consider the compound c1ccc2c(c1)cc1ccc3cccc4ccc2c1c34 and give its recorded inhibition.
5.92

Consider the compound COC1C(O)C(O[C@H]2CC[C@]3(C=O)C4C(OC(C)=O)C[C@]5(C)[C@@H](C6=CC(=O)OC6)CC[C@]5(O)C4CC[C@]3(O)C2)OC(C)C1OC(C)=O (some centres not stated) and give its recorded inhibition.
10.3

Consider the compound Cc1c(O)c(C(=O)CC(C)C)c2oc3c(C(=O)CC(C)C)c(O)c(C)c(O)c3c2c1O and give its recorded inhibition.
0.288

Consider the compound O=C1C=C2C(=CCOC2O)O1 (configuration not stated) and give its recorded inhibition.
4.22

Consider the compound CC[n+]1c(-c2ccccc2)c2cc(N)ccc2c2ccc(N)cc21 and give its recorded inhibition.
7.37

Consider the compound COP(=S)(OC)SCn1nnc2ccccc2c1=O and give its recorded inhibition.
1.29
